- ASSAY OVERVIEW: small-molecule microarray binders of probe aDKK1, primary screen, biochemical, biotinylated probe, 635/667 nm fluorescence (AID 1099);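 further: score merges 667nm spot fluorescence with signal to noise across triplicate slides; reference of the scale not given here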
- ASSAY CONDITIONS: higher = more signal
MEASUREMENT KIND: composite z-score
Answers are plain numbers.

Worked cases, answers included:
COMPOUND | OBSERVED RESULT
O=C1[C@H]2C=C(Br)[C@H](C[C@@H]2c2ccccc2)[C@@]12CO2 | -0.217
CC(C)(C)OC(=O)CC[C@@]1(C(=O)NCCN2CCOCC2)N=C(c2ccc(OCCCO)cc2)O[C@@H]1c1ccccc1N=[N+]=[N-] | 1.04
C=CCOC(=O)[C@@H]1[C@H]2C(=O)O[C@H](c3ccccc3)[C@H](c3ccccc3)N2[C@H](c2ccc(OCCOC(=O)[C@@H]3C[C@@H]4C(=O)N[C@@H](CCCCN(C)C)C(=O)N4[C@@H]3c3ccc(O)cc3)cc2)[C@@]12C(=O)Nc1ccc(I)cc12 | -0.0242
COC(=O)[C@@]1(Cc2ccc(F)cc2)[C@H]2c3cc(C(=O)N4CCCC4)n(Cc4ccc(C)o4)c3C[C@H]2CN1C(=O)c1ccccc1 | 0.72
COc1ccc([Si](C)(C)[C@H]2[C@H](CC(=O)N3Cc4ccccc4C[C@H]3CO)O[C@@]3(C(=O)N(Cc4ccc(N5CCC5=O)cc4)c4ccccc43)[C@@H]2C)cc1 | -0.283
C=CCOC(=O)[C@H]1[C@@H]2C(=O)O[C@@H](c3ccccc3)[C@@H](c3ccccc3)N2[C@@H](c2ccc(OCCOC(=O)[C@H]3C[C@H]4C(=O)N[C@@H](CC(C)C)C(=O)N4[C@H]3c3ccc(O)cc3)cc2)[C@]12C(=O)Nc1ccc(I)cc12 | -0.271

With those in mind, consider the next compound.
Lookup: Please report the recorded composite z-score for CN1C(=O)C2C=CC(C(O)C3CCCCC3)N(Nc3ccc([N+](=O)[O-])cc3[N+](=O)[O-])C2C1=O (configuration not stated) .
Found: 0.778
